Values were extracted from patent US20140228277A1.

What IC50 was measured for each of the following?
- assayed target: recombinant human BACE1 (rhBACE1) (human, UniProt P56817 22-457, limits assumed)
- Sequence (P56817 22-457 limits assumed): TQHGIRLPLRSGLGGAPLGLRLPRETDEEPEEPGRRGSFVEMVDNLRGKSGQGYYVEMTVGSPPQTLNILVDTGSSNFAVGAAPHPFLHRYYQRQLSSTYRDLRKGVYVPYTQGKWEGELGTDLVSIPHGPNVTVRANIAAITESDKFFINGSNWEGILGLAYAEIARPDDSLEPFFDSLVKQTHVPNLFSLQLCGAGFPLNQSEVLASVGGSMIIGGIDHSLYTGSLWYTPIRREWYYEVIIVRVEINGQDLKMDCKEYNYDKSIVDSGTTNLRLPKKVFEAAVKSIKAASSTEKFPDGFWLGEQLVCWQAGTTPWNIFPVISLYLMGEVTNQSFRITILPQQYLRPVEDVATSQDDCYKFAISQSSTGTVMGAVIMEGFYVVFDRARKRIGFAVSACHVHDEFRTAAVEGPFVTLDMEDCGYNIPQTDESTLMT
- measurement notes: FP competition binding; 12 nM rhBACE1, competitor probe 5-TAMRA-BACE020
Positions of bridges follow the written chain, without caps; N, C: chain ends.
Numbers only, in nM.

Recorded IC50, per entry:
Ac-NEESMYCRLLGIGCG-NH2 (disulfide 7-14; SMILES CC[C@H](C)[C@@H]1NC(=O)CNC(=O)[C@H](CC(C)C)NC(=O)[C@H](CC(C)C)NC(=O)[C@H](CCCNC(=N)N)NC(=O)[C@@H](NC(=O)[C@H](Cc2ccc(O)cc2)NC(=O)[C@H](CCSC)NC(=O)[C@H](CO)NC(=O)[C@H](CCC(=O)O)NC(=O)[C@H](CCC(=O)O)NC(=O)[C@H](CC(N)=O)NC(C)=O)CSSC[C@@H](C(=O)NCC(N)=O)NC(=O)CNC1=O, also called BACE20; BACE-20) [BACE020]    11
Ac-NEESMYCRLAGIGCG-NH2 (disulfide 7-14 (inferred), also called BACE020 Leu10 to Ala) [BACE050]    186
Ac-NEEHMYCRLLGIGCG-NH2 (disulfide 7-14 (inferred), also called BACE020 Ser4 to His) [BACE056]    4500

Continue with the next binder.
[in] Report IC50 for Ac-NEESMACRLLGIGCG-NH2 (disulfide 7-14 (inferred), also called BACE020 Tyr6 to Ala) [BACE047] please.
[out] 225
